Test system: IL-21
Test: TH17 cytokine inhibition measured by ELISA (IL-21)
Assay type: cell-based
Run conditions: 120 h; human TH17 cells, 5 days differentiation, ELISA of supernatants, 0.1% DMSO
Catalogue of compounds with associated IC50
Test readout: IC50

[
  {
    "Smiles record": "Cc1cc(-c2ccc3c(c2)CCN3Cc2ccc(C(O)(C(F)(F)F)C(F)(F)F)cc2)[nH]n1",
    "Test readout": "IC50",
    "Value measured": "< 10 µM"
  },
  {
    "Smiles record": "OC(c1ccc(CN2CCc3cc(-c4cn[nH]c4)ccc32)cc1)(C(F)(F)F)C(F)(F)F",
    "Test readout": "IC50",
    "Value measured": "< 10 µM"
  },
  {
    "Smiles record": "Cc1nnc(-c2ccc3c(c2)CCN3Cc2ccc(C(O)(C(F)(F)F)C(F)(F)F)cc2)o1",
    "Test readout": "IC50",
    "Value measured": "< 10 µM"
  },
  {
    "Smiles record": "O=C1CCc2cc(-c3cn[nH]c3)ccc2N1Cc1ccc(C(O)(C(F)(F)F)C(F)(F)F)cc1",
    "Test readout": "IC50",
    "Value measured": "< 10 µM"
  },
  {
    "Smiles record": "OC(c1ccc(CN2CCCc3cc(-c4cn[nH]c4)ccc32)cc1)(C(F)(F)F)C(F)(F)F",
    "Test readout": "IC50",
    "Value measured": "< 10 µM"
  },
  {
    "Smiles record": "Cc1cc(-c2ccc3c(c2)CCCN3Cc2ccc(C(O)(C(F)(F)F)C(F)(F)F)cc2)[nH]n1",
    "Test readout": "IC50",
    "Value measured": "< 10 µM"
  },
  {
    "Smiles record": "Cc1n[nH]c(-c2ccc3c(c2)CCCN3Cc2ccc(C(O)(C(F)(F)F)C(F)(F)F)cc2)n1",
    "Test readout": "IC50",
    "Value measured": "< 10 µM"
  }
]
